Cited source: ChEMBL document CHEMBL3991601

# tested-target: Tyrosine-protein kinase FRK (Homo sapiens); note: in the data inactive means no Kd found up to 30 µM
# Sequence (P42685 whole entry): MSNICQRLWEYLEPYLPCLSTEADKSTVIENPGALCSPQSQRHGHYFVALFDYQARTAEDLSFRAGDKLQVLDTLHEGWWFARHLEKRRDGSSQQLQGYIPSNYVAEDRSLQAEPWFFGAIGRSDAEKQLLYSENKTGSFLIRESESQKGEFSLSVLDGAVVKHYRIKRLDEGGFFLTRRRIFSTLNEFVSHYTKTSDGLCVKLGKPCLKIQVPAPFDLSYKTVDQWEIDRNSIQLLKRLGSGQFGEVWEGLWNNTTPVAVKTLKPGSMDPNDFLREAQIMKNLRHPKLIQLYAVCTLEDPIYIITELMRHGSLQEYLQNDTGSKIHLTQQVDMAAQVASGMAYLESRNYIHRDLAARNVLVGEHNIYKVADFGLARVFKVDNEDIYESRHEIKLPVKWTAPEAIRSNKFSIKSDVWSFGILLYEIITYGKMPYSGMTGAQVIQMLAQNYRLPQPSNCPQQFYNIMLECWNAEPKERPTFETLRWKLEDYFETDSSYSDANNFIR
The source made the active and inactive calls.
Classes to choose from: t for active, f for inactive

Enquiry: Please indicate how the test categorized O=C(O)c1ccc2c(c1)nc(Nc1cccc(Cl)c1)c1ccncc12 [SILMITASERTIB] .
Return: f

Enquiry: Please indicate how the test categorized COc1ccc(-c2ccc3ncc4c(c3c2)n(-c2ccc(N3CCNCC3)c(C(F)(F)F)c2)c(=O)n4C)cn1 [BGT-226 FREE BASE] .
Return: f

Enquiry: Please indicate how the test categorized CCN1CCN(Cc2ccc(Nc3ncc(F)c(-c4cc(F)c5nc(C)n(C(C)C)c5c4)n3)nc2)CC1 [ABEMACICLIB] .
Return: f

* * *

# tested-target: Serine/threonine-protein kinase PLK4 (Homo sapiens); note: in the data inactive means no Kd found up to 30 µM
# Sequence (O00444 whole entry): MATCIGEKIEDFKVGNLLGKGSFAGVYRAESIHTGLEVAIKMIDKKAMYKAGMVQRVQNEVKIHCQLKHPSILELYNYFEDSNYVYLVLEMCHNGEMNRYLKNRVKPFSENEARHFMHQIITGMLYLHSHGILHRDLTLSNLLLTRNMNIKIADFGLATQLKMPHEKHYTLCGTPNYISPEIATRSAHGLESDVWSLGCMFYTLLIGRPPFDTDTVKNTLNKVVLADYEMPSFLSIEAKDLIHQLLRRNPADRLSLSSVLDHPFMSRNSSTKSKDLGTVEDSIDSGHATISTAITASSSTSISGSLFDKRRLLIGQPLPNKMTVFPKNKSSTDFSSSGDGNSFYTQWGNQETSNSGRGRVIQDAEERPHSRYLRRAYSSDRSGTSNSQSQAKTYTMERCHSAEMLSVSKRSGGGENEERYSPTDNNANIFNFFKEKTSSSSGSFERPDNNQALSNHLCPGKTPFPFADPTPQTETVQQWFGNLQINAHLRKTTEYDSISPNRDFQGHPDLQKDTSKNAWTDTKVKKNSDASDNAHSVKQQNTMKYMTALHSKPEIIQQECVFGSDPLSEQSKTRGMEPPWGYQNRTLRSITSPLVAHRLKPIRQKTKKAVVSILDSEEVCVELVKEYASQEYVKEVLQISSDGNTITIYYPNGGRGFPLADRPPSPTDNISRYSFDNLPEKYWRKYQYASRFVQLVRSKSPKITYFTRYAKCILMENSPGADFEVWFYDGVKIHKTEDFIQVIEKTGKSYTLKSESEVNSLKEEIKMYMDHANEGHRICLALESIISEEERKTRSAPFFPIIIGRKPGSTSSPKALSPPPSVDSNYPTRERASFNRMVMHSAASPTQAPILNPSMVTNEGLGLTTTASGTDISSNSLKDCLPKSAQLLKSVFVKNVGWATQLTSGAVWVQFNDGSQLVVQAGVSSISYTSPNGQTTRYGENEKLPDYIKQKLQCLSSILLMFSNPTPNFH
Calls of active or inactive are those of the source.
Classes to choose from: y = active, n = inactive

Look over these answered cases.
C[C@@H]1COC(Nc2ccc3ncnc(Nc4ccc(OCc5nccs5)c(Cl)c4)c3c2)=N1 [VARLITINIB]    n
CCN1CCN(Cc2ccc(Nc3ncc(F)c(-c4cc(F)c5nc(C)n(C(C)C)c5c4)n3)nc2)CC1 [ABEMACICLIB]    n

Enquiry: Please indicate how the test categorized CNC(=O)c1ccc(Nc2ncc(C(F)(F)F)c(NCc3nccnc3N(C)S(C)(=O)=O)n2)cc1 [DEFACTINIB] .
Return: n

Enquiry: Please indicate how the test categorized FC(F)(F)c1ccc(CNc2ccc(Cc3c[nH]c4ncc(Cl)cc34)cn2)cn1 [PEXIDARTINIB] .
Return: n

Enquiry: Please indicate how the test categorized COc1cc(Nc2ncc(F)c(Nc3ccc4c(n3)N(COP(=O)(O)O)C(=O)C(C)(C)O4)n2)cc(OC)c1OC [FOSTAMATINIB] .
Return: y

Enquiry: Please indicate how the test categorized COc1ccc(-c2ccc3ncc4c(c3c2)n(-c2ccc(N3CCNCC3)c(C(F)(F)F)c2)c(=O)n4C)cn1 [BGT-226 FREE BASE] .
Return: n

Enquiry: Please indicate how the test categorized O=C(O)c1ccc2c(c1)nc(Nc1cccc(Cl)c1)c1ccncc12 [SILMITASERTIB] .
Return: n

Enquiry: Please indicate how the test categorized COc1cccc(Nc2ncnn3ccc(CN4CC[C@@H](N)[C@H](O)C4)c23)c1 [BMS-690514] .
Return: n

* * *

Listed here are compounds together with their documented Kd.
# tested-target: Acyl-CoA dehydrogenase family member 11 (Homo sapiens); note: in the data inactive means no Kd found up to 30 µM
# Sequence (Q709F0 whole entry): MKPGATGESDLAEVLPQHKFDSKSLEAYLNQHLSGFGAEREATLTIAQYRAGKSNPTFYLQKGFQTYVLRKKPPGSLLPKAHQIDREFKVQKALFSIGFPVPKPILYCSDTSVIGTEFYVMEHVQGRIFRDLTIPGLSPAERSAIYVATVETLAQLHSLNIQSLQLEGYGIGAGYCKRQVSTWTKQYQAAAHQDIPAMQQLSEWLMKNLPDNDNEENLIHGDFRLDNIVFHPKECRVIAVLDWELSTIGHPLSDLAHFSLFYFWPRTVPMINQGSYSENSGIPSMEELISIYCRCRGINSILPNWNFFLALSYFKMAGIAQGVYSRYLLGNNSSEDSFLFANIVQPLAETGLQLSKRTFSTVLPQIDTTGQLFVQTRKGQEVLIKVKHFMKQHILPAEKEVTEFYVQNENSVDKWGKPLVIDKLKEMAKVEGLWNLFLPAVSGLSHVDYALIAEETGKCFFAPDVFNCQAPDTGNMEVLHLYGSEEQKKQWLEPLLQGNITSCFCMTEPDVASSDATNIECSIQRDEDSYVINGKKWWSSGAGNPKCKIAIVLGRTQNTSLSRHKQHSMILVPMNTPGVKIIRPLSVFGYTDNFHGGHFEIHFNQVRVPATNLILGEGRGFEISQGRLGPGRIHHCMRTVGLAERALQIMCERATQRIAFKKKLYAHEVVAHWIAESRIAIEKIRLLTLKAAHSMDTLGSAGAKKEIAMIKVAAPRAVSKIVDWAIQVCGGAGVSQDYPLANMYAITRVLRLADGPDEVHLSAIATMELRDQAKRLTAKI
The source made the active and inactive calls.

In plain terms, Cn1c(=O)n(-c2ccc(C(C)(C)C#N)cc2)c2c3cc(-c4cnc5ccccc5c4)ccc3ncc21 has a documented Kd of > 30 µM (inactive)

In plain terms, Cc1cc(C(=O)Nc2cc(Oc3ccc4nc(NC(=O)C5CC5)cn4n3)ccc2C)n(C)n1 has a documented Kd of > 30 µM (inactive)

In plain terms, Cc1cc(-c2cc(OC(=O)c3ccccc3)ccc2Cl)cc2nnc(Nc3ccc(OCCN4CCCC4)cc3)nc12 has a documented Kd of > 30 µM (inactive)

In plain terms, COc1cc(F)c(F)c(Nc2ccc(I)cc2F)c1NS(=O)(=O)C1(C[C@H](O)CO)CC1 has a documented Kd of > 30 µM (inactive)

In plain terms, COc1cc2c(N3CCN(C(=O)Nc4ccc(OC(C)C)cc4)CC3)ncnc2cc1OCCCN1CCCCC1 has a documented Kd of > 30 µM (inactive)

In plain terms, C=CC(=O)Nc1cccc(Nc2nc(Nc3ccc(N4CCN(C(C)=O)CC4)cc3OC)ncc2C(F)(F)F)c1 has a documented Kd of > 30 µM (inactive)

In plain terms, COc1cc(Nc2ncc(F)c(Nc3ccc4c(n3)N(COP(=O)(O)O)C(=O)C(C)(C)O4)n2)cc(OC)c1OC has a documented Kd of > 30 µM (inactive)

In plain terms, CC1(C)CNc2cc(NC(=O)c3cccnc3NCc3ccncc3)ccc21 has a documented Kd of > 30 µM (inactive)

* * *

# tested-target: Beta-adrenergic receptor kinase 1 (Homo sapiens); note: in the data inactive means no Kd found up to 30 µM
# Sequence (P25098 whole entry): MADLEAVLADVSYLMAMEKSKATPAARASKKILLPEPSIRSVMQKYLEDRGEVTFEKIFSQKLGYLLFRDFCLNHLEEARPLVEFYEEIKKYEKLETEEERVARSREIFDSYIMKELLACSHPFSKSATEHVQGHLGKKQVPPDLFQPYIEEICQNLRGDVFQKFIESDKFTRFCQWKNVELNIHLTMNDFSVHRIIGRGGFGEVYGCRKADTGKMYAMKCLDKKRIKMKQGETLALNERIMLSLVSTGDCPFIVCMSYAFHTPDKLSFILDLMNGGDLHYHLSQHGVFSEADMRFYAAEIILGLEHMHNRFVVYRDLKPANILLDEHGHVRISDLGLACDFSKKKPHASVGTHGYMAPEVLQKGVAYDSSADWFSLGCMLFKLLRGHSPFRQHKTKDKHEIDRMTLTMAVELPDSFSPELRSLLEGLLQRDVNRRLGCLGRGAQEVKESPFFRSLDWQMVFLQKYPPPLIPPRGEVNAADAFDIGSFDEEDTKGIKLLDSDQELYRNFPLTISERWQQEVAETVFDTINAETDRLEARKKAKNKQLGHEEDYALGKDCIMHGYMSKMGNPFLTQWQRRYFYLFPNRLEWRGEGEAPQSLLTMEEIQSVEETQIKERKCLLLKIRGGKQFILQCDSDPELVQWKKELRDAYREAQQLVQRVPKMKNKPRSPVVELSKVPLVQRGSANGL
Activity calls are given as the source filed them.
Classes to choose from: active, inactive

Look over these answered cases.
NC[C@@](O)(c1ccc(Cl)cc1)c1ccc(-c2cn[nH]c2)cc1 [AT-13148]    active
COc1cc2c(N3CCN(C(=O)Nc4ccc(OC(C)C)cc4)CC3)ncnc2cc1OCCCN1CCCCC1 [TANDUTINIB]    inactive
COc1cc2ncnc(Nc3ccc(O)cc3)c2cc1OC [WHI-P131]    inactive
COc1cc(F)c(F)c(Nc2ccc(I)cc2F)c1NS(=O)(=O)C1(C[C@H](O)CO)CC1 [REFAMETINIB]    inactive
CNC(=O)c1cc(COc2nnc(Nc3ccc(Cl)cc3)c3ccoc23)ccn1 [TELATINIB]    inactive
N#CCNC(=O)c1ccc(-c2ccnc(Nc3ccc(N4CCOCC4)cc3)n2)cc1 [MOMELOTINIB]    inactive
CCOc1ccn(-c2ccc(F)cc2)c(=O)c1C(=O)Nc1ccc(Oc2ccnc(N)c2Cl)c(F)c1 [BMS-777607]    inactive
Cc1cc(C(=O)Nc2cc(Oc3ccc4nc(NC(=O)C5CC5)cn4n3)ccc2C)n(C)n1 [TAK-593]    inactive

Kindly review the next molecule as well.
Enquiry: Please indicate how the test categorized Cn1cc(-c2[nH]c3cc(NC(=O)[C@H](N)C4CCCCC4)cc4c3c2C=NNC4=O)cn1 .
Return: active

* * *

Listed here are compounds together with their documented Kd.
# tested-target: Uncharacterized protein FLJ45252 (Homo sapiens, UniProt Q6ZSR9); note: in the data inactive means no Kd found up to 30 µM
# Sequence (Q6ZSR9 whole entry): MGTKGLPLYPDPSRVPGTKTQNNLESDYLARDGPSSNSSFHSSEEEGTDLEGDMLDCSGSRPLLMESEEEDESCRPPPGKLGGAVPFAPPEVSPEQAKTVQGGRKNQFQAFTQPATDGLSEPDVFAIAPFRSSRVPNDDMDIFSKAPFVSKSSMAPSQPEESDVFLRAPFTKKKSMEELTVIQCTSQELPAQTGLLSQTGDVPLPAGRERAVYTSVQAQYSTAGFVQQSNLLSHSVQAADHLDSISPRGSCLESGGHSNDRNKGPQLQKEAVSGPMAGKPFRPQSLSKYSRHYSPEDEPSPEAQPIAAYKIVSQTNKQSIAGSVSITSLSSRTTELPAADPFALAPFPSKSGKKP
# details: read-out: Kd apparent; k-562, colo 205, sk-n-be(2) and mv-4-11
Calls of active or inactive are those of the source.

// worked examples, Kd included
CCN1CCN(Cc2ccc(Nc3ncc(F)c(-c4cc(F)c5nc(C)n(C(C)C)c5c4)n3)nc2)CC1    0.088 µM (active)
Cc1c(Cn2c(C)nc3c(C(=O)O)cc(N4CCOCC4)cc32)cccc1C(F)(F)F    > 30 µM (inactive)
S=C(NCc1ccc2c(c1)OCO2)N1CCN(c2ncnc3c2oc2ccccc23)CC1    > 30 µM (inactive)
CNC(=O)c1cc(COc2nnc(Nc3ccc(Cl)cc3)c3ccoc23)ccn1    > 30 µM (inactive)

In plain terms, O[C@H]1CC[C@H](Nc2ncc3nc(Nc4c(F)cc(F)cc4F)n([C@H]4CCOC4)c3n2)CC1 has a documented Kd of > 30 µM (inactive)

In plain terms, O=C(Nc1ccc(OC(F)(F)F)cc1)c1sccc1NCc1ccnc2ccccc12 has a documented Kd of > 30 µM (inactive)

In plain terms, NC[C@@](O)(c1ccc(Cl)cc1)c1ccc(-c2cn[nH]c2)cc1 has a documented Kd of > 30 µM (inactive)

In plain terms, Cn1c(=O)n(-c2ccc(C(C)(C)C#N)cc2)c2c3cc(-c4cnc5ccccc5c4)ccc3ncc21 has a documented Kd of > 30 µM (inactive)

In plain terms, O=C(O)c1ccc2c(c1)nc(Nc1cccc(Cl)c1)c1ccncc12 has a documented Kd of > 30 µM (inactive)

In plain terms, C=CCn1c(=O)c2cnc(Nc3ccc(N4CCN(C)CC4)cc3)nc2n1-c1cccc(C(C)(C)O)n1 has a documented Kd of > 30 µM (inactive)

In plain terms, COc1cc(Nc2ncc(F)c(Nc3ccc4c(n3)N(COP(=O)(O)O)C(=O)C(C)(C)O4)n2)cc(OC)c1OC has a documented Kd of > 30 µM (inactive)

* * *

# tested-target: Mitogen-activated protein kinase 9 (Homo sapiens, UniProt P45984); note: in the data inactive means no Kd found up to 30 µM
# Sequence (P45984 whole entry): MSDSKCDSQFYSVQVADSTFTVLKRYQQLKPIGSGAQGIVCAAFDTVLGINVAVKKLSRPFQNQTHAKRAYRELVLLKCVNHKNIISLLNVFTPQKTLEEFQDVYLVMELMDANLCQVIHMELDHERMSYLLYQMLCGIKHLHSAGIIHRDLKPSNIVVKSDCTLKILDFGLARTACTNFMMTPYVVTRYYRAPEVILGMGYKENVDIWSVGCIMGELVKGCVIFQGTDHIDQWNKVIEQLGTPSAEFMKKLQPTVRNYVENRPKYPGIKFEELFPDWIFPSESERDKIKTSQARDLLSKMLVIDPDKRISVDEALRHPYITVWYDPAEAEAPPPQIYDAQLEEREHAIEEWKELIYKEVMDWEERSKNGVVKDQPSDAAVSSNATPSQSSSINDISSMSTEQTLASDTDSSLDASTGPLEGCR
Calls of active or inactive are those of the source.
Classes to choose from: active, inactive

C=CC(=O)Nc1cc(Nc2nccc(-c3cn(C)c4ccccc34)n2)c(OC)cc1N(C)CCN(C)C    inactive
NC[C@@](O)(c1ccc(Cl)cc1)c1ccc(-c2cn[nH]c2)cc1    inactive
COc1cc2ncnc(Nc3ccc(F)c(Cl)c3)c2cc1NC(=O)/C=C/CN1CCCCC1 [DACOMITINIB ANHYDROUS]    inactive

Enquiry: Please indicate how the test categorized COCCN1CCN(Cc2ccc(-c3n[nH]c4c3C(=O)c3c(NC(=O)NN5CCOCC5)cccc3-4)cc2)CC1 .
Return: active
